- target.or.system: T1, human PD-L1 (human, UniProt Q9NZQ7 19-238, limits assumed)
- T1 construct: also called hPD-L1
- T1 sequence (Q9NZQ7 19-238 limits assumed): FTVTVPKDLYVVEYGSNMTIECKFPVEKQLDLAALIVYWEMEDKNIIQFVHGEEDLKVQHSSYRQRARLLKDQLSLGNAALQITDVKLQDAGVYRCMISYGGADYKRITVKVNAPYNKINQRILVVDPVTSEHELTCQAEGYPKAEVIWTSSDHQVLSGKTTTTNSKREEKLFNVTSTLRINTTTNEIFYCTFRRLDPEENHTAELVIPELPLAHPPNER
- test.details: Octet-96 BLI; antigen not named, taken as human PD-L1
property.name: Kd (nM)
Numbers only, in nM.

| binder | Kd (nM) |
| --- | --- |
| DhVH2/DhVL1 (antibody, V domains shown, Humanized Clone D; constant regions from the vector, 293F cells; also called humanized Clone D, Dh VH2 + Dh VL1) VH: QVQLVQSGAEVKKPGASVKVSCKASGYSFTGYTMNWVKQAHGQGLEWMGLIIPYNGGISYNQKFKDRVTMTVDTSISTAYMELSRLRSDDTAVYYCASLITTAPRDSMDYWGQGTLVTVSS VL: DIQMTQSTSSLSASVGDRVTITCRASQDISNYLNWYQQKPGGAPKLLIYYTSKLHSGVPSRFSGSGSGTDYTLTISSLQQEDIATYYCQQGDALPWTFGGGTKVEIK | 1.27 |

Requested read-out: Kd. Entry: BhVH2/BhVL8 (antibody, V domains shown, Humanized Clone B; constant regions (CH1-FC/CL) from the vector, expressed in 293F cells; also called humanized Clone B, Bh VH2 + Bh VL8) VH: QGQLVQSGAEVKKPGASVKVSCKTSGFTFSSSYISWVRQAPGQGLEWMGWIYAGTGGTSYNQKFTGRVTMTVDTSTSTAYMELRSLRSDDTAVYYCARHEGKYWYFDVWGQGTTVTVSS VL: EIVMTQSPATLSVSPGERATLSCSASSSVSYVHWYQQKPGQAPRPWIYDTSNLASGFPARFSGSGSGTEYTLTISSLQSEDAAVYYCHQRSSYPWTFGGGTKVEIK
1.18

Measured values drawn from patent US20230340142A1 for this set.
